Ref: PubChem BioAssay

- protocolNotes: A2780 ovarian cancer cell cytotoxicity, dose response, cytotoxicity control, plate reader, dry powder samples (AID 743046);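 also: 0% = neutral control wells and -100% = cytotoxic reference compound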
- conditionDescription: series mostly up to 35 µM
Results with a measured potency or affinity are listed apart. Activity calls are given as the source filed them. No rule for the calls is given here.
resultType: activity change, negative = cytotoxicity

| smilesCode | resultType | value |
| --- | --- | --- |
| COc1ccccc1NC(=O)N1CCCCN2[C@H](CO)[C@H](c3ccc(-c4ccc(C)cc4)cc3)[C@H]2C1 | activity change, negative = cytotoxicity | inactive |
| C[C@@H]1CN([C@@H](C)CO)C(=O)c2cc(NS(=O)(=O)c3ccccc3)ccc2O[C@@H](C)CCCCO[C@@H]1CN(C)Cc1ccc(C(F)(F)F)cc1 | activity change, negative = cytotoxicity | inactive |
| C[C@H](CO)N1C[C@H](C)[C@@H](CN(C)CC2CCCCC2)Oc2ccc(NC(=O)Nc3ccc4c(c3)OCO4)cc2CC1=O | activity change, negative = cytotoxicity | inactive |
| O=C(C[C@H]1C[C@@H]2c3cc(NC(=O)Nc4ccc(C(F)(F)F)cc4)ccc3O[C@@H]2[C@@H](CO)O1)NCc1ccc(Cl)cc1 | activity change, negative = cytotoxicity | inactive |

* * *

- protocolNotes: small-molecule microarray binders of probe aDKK1, primary screen, biochemical, biotinylated probe, 635/667 nm fluorescence (AID 1099);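 also: score merges 667nm spot fluorescence with signal to noise across triplicate slides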
- conditionDescription: higher = more signal
Decide using composite z-score: a value greater than or equal to 0.3 is True, a smaller one is False.

Some solved entries appear below for comparison.
| compound | classAssignment |
| --- | --- |
| CC(C)(C)OC(=O)CC[C@@]12N=C(c3ccc(OCCCO)cc3)O[C@@H]1c1ccccc1CN(Cc1ccccc1)C2=O | True |
| CC(C)C[C@@H]1NC(=O)[C@H]2C[C@@H](C(=O)NCCCC[N+](C)(C)C)[C@@H](c3cccc(OCCO)c3)N2C1=O | False |

Asked: Test whether the compound COc1ccc(CCNC(=O)[C@@]2(Sc3ccc(C)cc3)CC(=O)N(Cc3ccccc3)[C@@H]2c2ccc(CO)cc2I)cc1 records composite z-score of 0.3 or higher.
Given back: False

Asked: Test whether the compound C=CCC(OC(C)=O)[C@@H]1[C@@H](N(Cc2ccc(-c3cccc(C(F)(F)F)c3)o2)C(=O)c2ccc(-c3ccccc3)cc2)c2cc(OCCCO)ccc2N1C(=O)Cc1ccc(OC)cc1 (stereo partly drawn) records composite z-score of 0.3 or higher.
Given back: False

Asked: Test whether the compound C=C(/C(=C/C[C@H](OC(C)=O)c1cccc(OCCO)c1)c1cc(C(=O)OC)ccc1OC)C(C)C records composite z-score of 0.3 or higher.
Given back: False

* * *

Consider the following molecules and their measured composite z-score readings.
- targetEntity: Carbonic anhydrase 2 (Homo sapiens) (UniProt P00918)
- protocolNotes: CAII small-molecule binders, profiling panel, biochemical, small-molecule microarray, Alexa647-labelled CAII (AID 1122)
- conditionDescription: CAII-A647 binding fluorescence, higher = more signal
# print the numeric value only

Asked: What composite z-score appears in the records for this molecule with Carbonic anhydrase 2 (Homo sapiens) (UniProt P00918)? CC(C)(C)OC(=O)CC[C@@]12N=C(c3ccc(OCCCO)cc3)O[C@@H]1c1ccccc1N(Cc1ccccc1)C2=O
Given back: 0.434

* * *

- protocolNotes: fission yeast growth modulation, primary screen, strain 972, OD600, 24 h, no modulator (AID 1090);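 also: basal condition with compound alone and no growth modifier present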
- conditionDescription: S. pombe 972 growth, higher = more signal, called active from +8 up or from −8 down
Decide using z-score: a value greater than or equal to -2 is condition met, a smaller one is condition not met.

Some solved entries appear below for comparison.
| compound | classAssignment |
| --- | --- |
| COC(=O)C1=CC(c2ccc(CO)cc2)=CC(c2cccs2)N(C)C=C1C(=O)OC (stereo not drawn) | condition not met |
| COCCCNC(=O)[C@@]1(CCS(=O)(=O)c2ccccc2)N=C(c2ccc(OCCCO)cc2)O[C@H]1c1ccccc1CN=[N+]=[N-] | condition met |
| CC(C)N1C(=O)c2ccccc2[C@@H](C(=O)NCc2ccccc2)[C@@H]1c1ccc(CO)cc1 | condition met |
| CC(C)(C)OC(=O)CC[C@@]1(C(=O)N2CCOCC2)N=C(c2ccc(OCCCO)cc2)O[C@@H]1c1ccccc1 | condition met |
| CCCNC(=O)[C@@H]1c2ccccc2C(=O)N(Cc2cc(C(F)(F)F)cc(C(F)(F)F)c2)[C@H]1c1ccc(CO)cc1 | condition met |

Asked: Test whether the compound COCCCN1C(=O)[C@@]2(Cc3ccccc31)c1ccccc1C(=O)N(Cc1ccccc1Cl)[C@H]2c1ccc(CO)cc1 records z-score of -2 or higher.
Given back: condition met

Asked: Test whether the compound NC(=O)N1C(=O)C2C(C1=O)C1C=C(c3ccc(CO)cc3)C2C(C2CC2)N1Cc1cc2c(cc1Br)OCO2 (stereo not drawn) records z-score of -2 or higher.
Given back: condition not met

Asked: Test whether the compound O=C(NCc1ccccc1)[C@@H]1c2ccccc2C(=O)N(Cc2ccccc2Cl)[C@H]1c1ccc(CO)cc1 records z-score of -2 or higher.
Given back: condition met
